Just for reference, the supplement of paper PMC10724198 is where these values come from.

Tested on: Saccharomyces cerevisiae
assay_details: protein stability index of tFT-peptide fusion (C-terminal peptide) (PSI (0-1 scale)); higher = more stable (slower turnover)
setup_conditions: genetic background: wild type; temperature: 30 C
# protein stability index per record follows
Form field (numeric): enter value without unit.

// below: answered sequences
ELNERRKRLVTN; 0.142
FPFPLSSFLLLY; 0.331
FLGPMRVLVSSV; 0.425
YWFWLLIGSFSC; 0.382
GIVSGEGAVGVG; 0.466
HFASPPAPRSNL; 0.785
TLPIWLRVLIFG; 0.29
EGREGGGRGEVL; 0.479
VFFSLSLILFPF; 0.402
LVDPFAALRHVV; 0.173

Next, consider the following sequence.
Q: Missing value: protein stability index, Saccharomyces cerevisiae, entry SRPLYVMICTRV . Fill in?
A: 0.287

====

Test system: Saccharomyces cerevisiae
assay_details: protein stability index of tFT-peptide fusion (C-terminal peptide) (PSI (0-1 scale)); higher = more stable (slower turnover)
setup_conditions: genetic background: wild type; temperature: 30 C
measurement_type: protein stability index
Write no unit; give the number alone.

Please review the following examples before continuing.
ICCQVAKSLLKI [YGL074C C-terminal 12 aa]; 0.688
LLEDLRSRIDLD [MLO50 C-terminal 12 aa]; 0.744
KYYETVGKADII [AIM36 C-terminal 12 aa]; 0.697

# next sequence below
Q: # input sequence: LEFVRGGSRQFT [TIM44 C-terminal 12 aa] ; wanted: its protein stability index
A: 0.713

====

Test system: Saccharomyces cerevisiae
assay_details: protein stability index of tFT-peptide fusion (C-terminal peptide) (PSI (0-1 scale)); higher = more stable (slower turnover)
setup_conditions: genetic background: wild type; temperature: 30 C
measurement_type: protein stability index
API doc: respond with a numeric literal and nothing else, no unit.

SKKRKEKRTKEW; 0.63
LSPLPTPLRPNS; 0.68
PPAPSPPLPSLA; 0.694
HGGTGDPAGIES; 0.694
LGTETASSGFSG; 0.691
SKKNKPAQRRPH; 0.729

Q: Form field: reported protein stability index of LLSSLLLDQPYR
A: 0.646

Q: Quick one: protein stability index for CLPQCLNPDFAE ?
A: 0.645

Q: So what's the measured protein stability index for this one? GVNGFRIVCGGE
A: 0.674

====

Reported values of protein stability index for individual entries
Tested on: Saccharomyces cerevisiae
assay_details: protein stability index of tFT-peptide fusion (C-terminal peptide) (PSI (0-1 scale)); higher = more stable (slower turnover)
setup_conditions: genetic background: wild type; temperature: 30 C
Answer with the value's number alone.

TKKKTINRTQKQ; 0.713
PSTLQPLQRSPR; 0.617
LAQLPPSLRFPP; 0.72

Q: Which protein stability index is reported with Saccharomyces cerevisiae for this entry: SASVLPSPLPPV ?
A: 0.708

Q: Notebook: pull reported protein stability index for Saccharomyces cerevisiae, entry VSAYLKNSGYRE
A: 0.696

Q: I'm curious: which protein stability index was measured for LLHMSRLWYTTF tested on Saccharomyces cerevisiae?
A: 0.595

Q: Quick check: protein stability index on Saccharomyces cerevisiae, item PRTPAPAPTPRP ?
A: 0.682

Q: Give Saccharomyces cerevisiae protein stability index for WSRSGGGEKYGV
A: 0.69

Q: Fill in the recorded protein stability index for this sequence, with Saccharomyces cerevisiae as test system: EGIYLTVGTVDQ
A: 0.707

Q: # value lookup — system Saccharomyces cerevisiae, readout protein stability index, item HLHAPSPPTLTL
A: 0.682
